# Test system: BT-474 Tam1
# Procedure Text: drug sensitivity score (DSS) (DSS (dimensionless)); higher = more sensitive; extreme values may be limits of the assay
# Experimental Parameters: 4-OH-tamoxifen in medium 1 µM; 72 h
Measurement Kind: drug sensitivity score
Please state the value as a number alone, without comment.

Using the record for O=C(CCCCCCC(=O)Nc1ccc([C@H]2O[C@@H](CSc3nc(-c4ccccc4)c(-c4ccccc4)o3)C[C@@H](c3ccc(CO)cc3)O2)cc1)NO , state its measured drug sensitivity score.
0.976

Give reported drug sensitivity score value for CS(=O)(=O)CCNCc1ccc(-c2ccc3ncnc(Nc4ccc(OCc5cccc(F)c5)c(Cl)c4)c3c2)o1
11.6

Consider the molecule NC(=O)c1ccc(I)c([N+](=O)[O-])c1 and give its recorded drug sensitivity score.
0
